Molecular target: Human IgG (Calbiochem; San Diego Calif.) (human)
Test: IgG displaced from peptide pin; competitor MSP1-19
Measured ΔF (%), listed per entry for reference.
MEASURED_PARAMETER: ΔF (%)

| BINDER | MEASURED_PARAMETER | ASSAY_VALUE |
| --- | --- | --- |
| PNPTC [Peptide# 45] | ΔF (%) | < 5% |
| SGSNG [Peptide# 67] | ΔF (%) | < 5% |
| QEGDK [Peptide# 36] | ΔF (%) | < 5% |
| KKITC [Peptide# 72] | ΔF (%) | 9% |
| PLFDG [Peptide# 85] | ΔF (%) | 16% |
| NENNG [Peptide# 50] | ΔF (%) | 5% |
| HQCVK [Peptide# 5] | ΔF (%) | < 5% |
| REECK [Peptide# 25] | ΔF (%) | < 5% |
| KITCE [Peptide# 73] | ΔF (%) | 7% |
| QCVKK [Peptide# 6] | ΔF (%) | < 5% |
| CFRHL [Peptide# 18] | ΔF (%) | < 5% |
| TCECT [Peptide# 75] | ΔF (%) | 12% |
| CVENP [Peptide# 41] | ΔF (%) | < 5% |
| GKKIT [Peptide# 71] | ΔF (%) | 6% |
| CVKKQ [Peptide# 7] | ΔF (%) | < 5% |
| SQHQC [Peptide# 3] | ΔF (%) | < 5% |
| KQCPQ [Peptide# 10] | ΔF (%) | < 5% |
| LDERE [Peptide# 22] | ΔF (%) | < 5% |
| CKCLL [Peptide# 28] | ΔF (%) | < 5% |
| DGIFC [Peptide# 88] | ΔF (%) | 7% |
| NYKQE [Peptide# 33] | ΔF (%) | < 5% |
| QNSGC [Peptide# 14] | ΔF (%) | < 5% |
| CTEED [Peptide# 62] | ΔF (%) | < 5% |
| FRHLD [Peptide# 19] | ΔF (%) | < 5% |
| GDKCV [Peptide# 38] | ΔF (%) | < 5% |
| QCPQN [Peptide# 11] | ΔF (%) | < 5% |
| LLNYK [Peptide# 31] | ΔF (%) | < 5% |
| ECTKP [Peptide# 77] | ΔF (%) | 13% |
| GGCDA [Peptide# 54] | ΔF (%) | < 5% |
| ITCEC [Peptide# 74] | ΔF (%) | 5% |
| CDADA [Peptide# 56] | ΔF (%) | < 5% |
| AKCTE [Peptide# 60] | ΔF (%) | 5% |
| DADAK [Peptide# 57] | ΔF (%) | < 5% |
| ECKCL [Peptide# 27] | ΔF (%) | < 5% |
| ENNGG [Peptide# 51] | ΔF (%) | < 5% |
